Examples of compounds with documented log10(Ki) follow.
Target: Neuropeptide Y receptor type 5 (Homo sapiens)
Sequence (Q15761 whole entry): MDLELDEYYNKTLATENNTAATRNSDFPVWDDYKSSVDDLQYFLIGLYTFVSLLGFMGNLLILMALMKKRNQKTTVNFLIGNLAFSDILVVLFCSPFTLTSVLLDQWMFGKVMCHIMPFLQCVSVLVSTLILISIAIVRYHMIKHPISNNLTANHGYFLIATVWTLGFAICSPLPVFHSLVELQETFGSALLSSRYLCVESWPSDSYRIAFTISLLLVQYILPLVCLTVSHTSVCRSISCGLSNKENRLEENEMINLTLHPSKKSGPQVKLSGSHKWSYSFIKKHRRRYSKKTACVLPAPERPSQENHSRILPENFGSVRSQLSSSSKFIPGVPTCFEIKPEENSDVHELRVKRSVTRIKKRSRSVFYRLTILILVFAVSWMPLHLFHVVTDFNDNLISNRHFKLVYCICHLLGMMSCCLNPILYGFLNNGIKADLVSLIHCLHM
Test: Displacement of [125I]PPY from human recombinant NPYY5 receptor expressed in insect Sf9 membranes
READOUT TYPE: log10(Ki) (log10 of the value in nM)

[
  {
    "COMPOUND": "CN(C(=O)Nc1ccn(-c2ccccc2F)n1)[C@H]1CC[C@@]2(CC1)Cc1ccccc1C(=O)O2",
    "TARGET DESC": "Neuropeptide Y receptor type 5 (Homo sapiens)",
    "log10(Ki)": 0.38
  },
  {
    "COMPOUND": "CC(C)(C)S(=O)(=O)N[C@H]1CC[C@H](C(=O)Nc2ccc(C(F)(F)F)cn2)CC1",
    "TARGET DESC": "Neuropeptide Y receptor type 5 (Homo sapiens)",
    "log10(Ki)": 0.70
  },
  {
    "COMPOUND": "CN(C(=O)Nc1ccn(-c2ccccc2F)n1)[C@H]1CC[C@]2(CC1)OC(=O)c1ccncc12",
    "TARGET DESC": "Neuropeptide Y receptor type 5 (Homo sapiens)",
    "log10(Ki)": -0.10
  },
  {
    "COMPOUND": "CN(C(=O)Nc1ccn(-c2ccccc2F)n1)[C@H]1CC[C@]2(CC1)COc1ccccc12",
    "TARGET DESC": "Neuropeptide Y receptor type 5 (Homo sapiens)",
    "log10(Ki)": 0.90
  },
  {
    "COMPOUND": "O=C(CC1CCC2(CC1)Cc1ccccc1C(=O)O2)Nc1cnc(-c2ccccc2)cn1 (mixture of isomers)",
    "TARGET DESC": "Neuropeptide Y receptor type 5 (Homo sapiens)",
    "log10(Ki)": 2.48
  },
  {
    "COMPOUND": "CN(C(=O)Nc1ccn(-c2ccccc2F)n1)[C@H]1CC[C@]2(CC1)OC(=O)c1ccccc12",
    "TARGET DESC": "Neuropeptide Y receptor type 5 (Homo sapiens)",
    "log10(Ki)": -0.15
  },
  {
    "COMPOUND": "CCN(C(=O)Nc1cnc(-c2ccccc2)cn1)[C@H]1CC[C@@]2(CC1)Cc1ccccc1C(=O)O2",
    "TARGET DESC": "Neuropeptide Y receptor type 5 (Homo sapiens)",
    "log10(Ki)": 1.04
  },
  {
    "COMPOUND": "CN(C(=O)Nc1cnc(-c2ccccc2)cn1)[C@H]1CC[C@@]2(CC1)OC(=O)c1ccncc12",
    "TARGET DESC": "Neuropeptide Y receptor type 5 (Homo sapiens)",
    "log10(Ki)": -0.05
  }
]
